Below is a list of entries, each paired with its recorded cell number change value.
- experimentalDetails: qHTS Assay for Lipid Storage Modulators in Drosophila S3 Cells;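 as to cell number change: cells counted by Cell Tracker Red CMTPX staining in the red channel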
- conditionInfo: BODIPY lipid droplet fluorescence, 18-24 h, cells fed with added oleic acid; measured here: cell count max response
Among all 320,000 compounds or so, about 2,100 (0.66%) were called active. Inconclusive results (about 53%) are left out. What follows is part of a selection rich in actives, with near analogues and random picks from the rest.
reportedEndpoint: cell number change (%)

| compound | measValue |
| --- | --- |
| CC(=O)Nc1cc(NC(C)=O)cc(C(=O)OCC(=O)N2CC(C)OC(C)C2)c1 (configuration not stated) | -18.5 |
| COc1ccccc1N1CCN(CC(O)COc2ccc3c(c2)CCC3)CC1 (configuration not stated) | 1.49 |
| CC(C)c1nc2sc3c(=O)[nH]c(=S)[nH]c3c2c2c1CCC2 | 5.1 |
| CC1CN(C(=O)COC(=O)c2ccc(NC(=O)CC#N)cc2)CC(C)O1 (configuration not stated) | -23.4 |
| O=C(NC(=S)NCc1cccnc1)c1cc2ccccc2o1 | -19.5 |
| CC(C)C(=O)N=c1sc2cccc(F)c2n1C | 19.6 |
| O=C(NCCc1ccc(Cl)cc1)Nc1ccc(F)cc1 | -2.02 |
| CSc1nc(-c2ccc(Cl)cc2Cl)[nH]c(=O)c1C#N | -67 |
| O=C(c1c(F)cccc1F)N1CCCC1 | 7.6 |
| Cc1cccc(NC(=O)C(c2ccccc2Cl)N2CCOCC2)c1 (configuration not stated) | 14.2 |
| Cc1nnc(N/N=C/c2ccco2)n1N | -14 |
| CN1CCCN(C(=O)c2ccccc2Cl)CC1 | -6.61 |

---

- experimentalDetails: qHTS Assay for Lipid Storage Modulators in Drosophila S3 Cells;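 as to cell number change: cells counted by Cell Tracker Red CMTPX staining in the red channel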
- conditionInfo: BODIPY lipid droplet fluorescence, 18-24 h, cells fed with added oleic acid; measured here: cell count max response
In all, about 320,000 compounds went through this assay and about 2,100 (0.66%) were called active. About 53% were inconclusive and are not listed. Shown is part of a subset that was picked to be rich in actives.

| compound | cell number change (%) |
| --- | --- |
| O=S(=O)(NCc1ccccn1)C(F)(F)F | 15.5 |
| COc1ccc(OC)c(S(=O)(=O)NC2CC2)c1 | -2.27 |
| COc1cccc(-c2noc(C3CCCN(C(=O)c4cccc(F)c4)C3)n2)c1 (stereo unspecified) | -8.07 |
| Cc1ccc(S(=O)(=O)N2CCOCC2)cc1NC(=O)COC(=O)CNC(=O)c1ccccc1 | 5.41 |
| Cc1ccc(OCC(=O)Nc2ccc(S(=O)(=O)N3CCOCC3)cc2)c(C)c1 | 25.8 |
| CCc1nnc(SCC(=O)Nc2nccs2)n1CC | 1.52 |
| Cc1c(C(=O)NCc2cccnc2)sc2nc(-c3ccccc3)cn12 | -2.88 |
| COCCN(C(=O)CSc1nc2ccc(C)cc2[nH]1)c1c(N)n(Cc2ccccc2)c(=O)[nH]c1=O | -11.3 |
| O=C(CCn1nnc2ccccc21)OCC(=O)c1ccc([N+](=O)[O-])cc1 | 5.65 |
| O=C(NN(C(=O)C1CC1)c1nc2ccccc2s1)C1CC1 | 4.43 |
| CC(NC(=O)CSc1n[nH]c(=O)n1C1CC1)C12CC3CC(CC(C3)C1)C2 (stereo unspecified) | 7.42 |

---

- experimentalDetails: qHTS Assay for Lipid Storage Modulators in Drosophila S3 Cells;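 as to cell number change: cells counted by Cell Tracker Red CMTPX staining in the red channel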
- conditionInfo: BODIPY lipid droplet fluorescence, 18-24 h, cells fed with added oleic acid; measured here: cell count max response
- Description: NIH Molecular Libraries Probe Production Centers Network [MLPCN] NIH Chemical Genomics Center [NCGC] […] Triacsin C (Sigma-Aldrich T-4540), an inhibitor of long-chain fatty acyl CoA synthetase that blocks synthesis of triglycerides, was used as a positive control for lipid under-storage. […] Fluorescence was detected by excitation of the fluorophores with a 488-nm laser on an Acumen Explorer (TTP Lab Tech). […] Cells were detected using channel 3 (575-640 nm) with 5-um width and 100-um depth filters. […]
About 2,100 (0.66%) of roughly 320,000 compounds were called active. Not shown: some 53% with an inconclusive outcome. The sample holds actives, similar compounds and a random draw of the others, so the mix is not that of the screen.
The reader will find reported cell number change values listed item by item below.
reportedEndpoint: cell number change

| molecule | measValue |
| --- | --- |
| COc1ccccc1-n1c(SCC(=O)Nc2nnc(C)s2)nc2c(c1=O)SCC2 | 4.2% |
| CC(C)NC(=O)C(c1ccc(F)cc1)N(C(=O)CCC(=O)Nc1ccccn1)c1cccc(F)c1 (stereo not drawn) | 7.14% |
| O=C1CC(=O)N(CCc2ccccc2)C(=O)N1CCc1ccccc1 | -9.18% |
| O=C(NCCN1CCOCC1)c1ccc(CS(=O)c2ccccc2Cl)o1 (stereo not drawn) | -8.85% |
| COc1ccc(C2CC(O)(c3ccccc3)Oc3cc(OC)cc(OC)c32)cc1 (stereo not drawn) | -14.8% |
| Nc1nc(-c2ccccc2)nn1C(=O)c1ccco1 | -9.73% |
| CC(C)=CC(=O)O[C@@H]1Cc2cc3ccc(=O)oc3cc2OC1(C)C | -1.68% |
| O=C(COc1ccc2c(c1)CCC2)N1CCN(c2cccc(C(F)(F)F)c2)CC1 | 20.7% |
| CC(=O)c1cccc(NC(=O)N2CCCCCC2)c1 | -8.42% |
| O=C(CSc1nnnn1C1CCCCC1)Nc1ccc(F)cc1 | -9.49% |
| Nc1cc([N+](=O)[O-])ccc1O | -17.1% |
| O=C(CSc1nnnn1-c1ccc2c(c1)OCCO2)N1CCN(C(=O)c2ccco2)CC1 | -0.608% |
| C/C(=N\NS(=O)(=O)c1ccc([N+](=O)[O-])cc1)c1c[nH]c2ccccc12 | -0.495% |
| Cc1cccc(N2CCN(C(=O)COc3ccc4c(c3)CCC4)CC2)c1C | 1.12% |
| O=C(c1ccc(CS(=O)c2ccccc2Cl)o1)N1CCCCCC1 (stereo not drawn) | -21.2% |
| Cc1ccccc1S(=O)(=O)Cc1ccc(C(=O)NCCCN2CCCC2)o1 | 13.9% |
| CN(Cc1ccccc1)c1nnc(N)s1 | -2.39% |
| CCC(=O)Nc1c2c(nn1-c1ccccc1)CSC2 | 19% |
| CCn1c(SCC(=O)Nc2cccc(S(=O)(=O)N(C)c3ccccc3)c2)nnc1C1CC1 | 0.735% |
| CCOC(=O)N1CCN(C(=O)C2CCN(S(=O)(=O)c3cc(Cl)ccc3Cl)CC2)CC1 | -24.4% |
| O=S(=O)(Nc1ccc(OC(F)F)cc1)c1ccc(-c2ccon2)s1 | -0.692% |
| O=C(CBr)Nc1c2c(nn1-c1ccccc1)CSC2 | 23.5% |
| Cc1cccc(N2CCN(C(=O)COc3ccc4c(c3)CCC4)CC2C)c1 (stereo not drawn) | -2.19% |

---

- experimentalDetails: qHTS Assay for Lipid Storage Modulators in Drosophila S3 Cells; also: potency is read from the fitted curve at half-maximal effect
- conditionInfo: BODIPY lipid droplet fluorescence, 18-24 h, cells fed with added oleic acid; series mostly up to 46.1 µM
Screen size: about 320,000 compounds; about 2,100 (0.66%) were called active. Another 53% or so got no clear call; they are omitted. Many of the other results were omitted from the sample, so actives are more common in it than they were.

| compound | Potency |
| --- | --- |
| O=S(=O)(CCc1ccccc1)N1CCOCC1 | 5.8 µM (active) |
| CCOC(=O)Nc1ccc2c(CN3CCN(S(=O)(=O)c4ccccc4)CC3)cc(=O)oc2c1 | inactive |
| CCN1CCN(Cc2ccc(NC(=O)c3ccc(C)c(NC(=O)c4c[nH]c5cc(C(F)(F)F)ccc5c4=O)c3)cc2C(F)(F)F)CC1 | 10.3 µM (active) |
| CCCNc1c(F)c(F)c2c(C)c3ccccc3nc2c1F | 14.6 µM (active) |
| Cc1c2ccccc2nc2c(F)c(NC(C)C)c(F)c(F)c12 | 20.6 µM (active) |
| CCCNc1nc2ccccc2c(=O)[nH]1 | inactive |
| Cc1cccc(N2CCN(C(=O)CCCCCn3c(=S)[nH]c4ccc(N5CCOCC5)cc4c3=O)CC2)c1C | 20.6 µM (active) |
| CCN=C1SC(CC(=O)NC(C)c2ccccc2)C(=O)N1CC (stereo not drawn) | inactive |
| Cc1nc(C)c(C(=O)Nc2ccccc2)s1 | inactive |
| c1ccc2c(c1)nnn2CNc1nccs1 | inactive |
| CCN1CCN(Cc2ccc(NC(=O)c3ccc(C)c(NC(=O)N4CCNC4=O)c3)cc2C(F)(F)F)CC1 | inactive |
| COc1ccc(CC(=O)OCC(=O)Nc2ccc3c(c2)OCCO3)cc1OC | inactive |
| CC(=O)Nc1ccc(S(=O)(=O)N(C#N)c2nc(N(C)C)nc(N(C)C)n2)cc1 | inactive |
| CC(C)N1CCc2c(sc(NC(=O)c3ccc(S(=O)(=O)N4CCOCC4)cc3)c2C(N)=O)C1 | inactive |
| CCn1cc(S(=O)(=O)NC(C)c2cc(OC)ccc2OC)cn1 (stereo not drawn) | inactive |
| CCCS(=O)(=O)N1CCN(CCCc2ccccc2)CC1 | inactive |
| CCCCN1C(=S)NC[C@@H]1Cc1cccc2ccccc12 | inactive |
| CCOC(=O)c1c(NC(=O)c2ccc(S(=O)(=O)N3CCOCC3)cc2)sc2c1CCN(C(C)C)C2 | inactive |
| CCC(C)n1[nH]c(=O)cc1N (stereo not drawn) | inactive |
| Cc1ccc(SC(C)C(=O)Nc2ncn[nH]2)cc1 (stereo not drawn) | inactive |
| Cc1c2ccccc2nc2c(F)c(N(C)C)c(F)c(F)c12 | inactive |
| COc1ccc(C2CC(c3ccc(Br)cc3)=NN2C(=O)CSC2=NCCS2)cc1 (stereo not drawn) | inactive |
| CN(C)c1c2ccccc2nc2c(F)c(F)c(F)c(F)c12 | inactive |
